# ASSAY_TARGET: T1, soluble Homo sapiens CD131 comprising a C-terminal 6xHis tag (human, UniProt P32927 17-438)
# T1 construct: truncated after Ser438, C-terminal 6xHis; also called shCD131; shβc
# T1 sequence: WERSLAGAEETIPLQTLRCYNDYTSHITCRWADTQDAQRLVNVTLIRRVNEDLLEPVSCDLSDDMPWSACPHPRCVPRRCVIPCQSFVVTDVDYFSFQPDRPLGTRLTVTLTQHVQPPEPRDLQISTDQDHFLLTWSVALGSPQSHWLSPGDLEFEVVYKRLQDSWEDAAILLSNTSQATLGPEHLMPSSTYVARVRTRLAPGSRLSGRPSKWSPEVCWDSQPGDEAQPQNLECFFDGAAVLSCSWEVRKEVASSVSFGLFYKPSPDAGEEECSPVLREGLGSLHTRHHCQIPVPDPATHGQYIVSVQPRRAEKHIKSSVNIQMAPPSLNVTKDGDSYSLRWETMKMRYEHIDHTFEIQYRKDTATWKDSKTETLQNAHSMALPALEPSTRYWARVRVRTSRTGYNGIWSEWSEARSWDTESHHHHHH
# TEST: SPR, Fab over captured shCD131
Would you kindly list pKd for each of these binders?
Give bare numbers, as −log10 of the molar value.

# annotated cases, reported pKd shown
9A2-VR26 Fab (Fab, V domains shown, recombinant Fab) VH: EVQLLESGGGLVQPGGSLRLSCAASGFTFIHYRVHWVRQAPGKGLEWVSSIRSSGGFTYYADSVKGRFTISRDNSKNTLYLQMNSLRAEDTAVYYCARFYDSFFDIWGQGTMVTVSS VL: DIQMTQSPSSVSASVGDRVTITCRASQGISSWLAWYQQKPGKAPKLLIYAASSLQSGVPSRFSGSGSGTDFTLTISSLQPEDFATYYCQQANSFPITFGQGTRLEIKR: 9.64
9A2-VR21 Fab (Fab, V domains shown, recombinant Fab) VH: EVQLLESGGGLVQPGGSLRLSCAASGFTFMHYRVHWVRQAPGKGLEWVSSIRSSGGFTYYADSVKGRFTISRDNSKNTLYLQMNSLRAEDTAVYYCARFYDSFFDIWGQGTMVTVSS VL: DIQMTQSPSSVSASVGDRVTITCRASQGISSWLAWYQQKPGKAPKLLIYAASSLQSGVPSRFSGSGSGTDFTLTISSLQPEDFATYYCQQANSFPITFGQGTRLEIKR: 9.41

For the next question, use this binder.
Exercise: Using the record for 9A2-VR24 Fab (Fab, V domains shown, recombinant Fab) VH: EVQLLESGGGLVQPGGSLRLSCAASGFTFPWYRVHWVRQAPGKGLEWVSSIRSSGGFTYYADSVKGRFTISRDNSKNTLYLQMNSLRAEDTAVYYCARFYDSFFDIWGQGTMVTVSS VL: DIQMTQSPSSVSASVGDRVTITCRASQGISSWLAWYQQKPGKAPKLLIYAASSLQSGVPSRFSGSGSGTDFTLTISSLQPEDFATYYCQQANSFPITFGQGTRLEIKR , report its pKd.
Key: 9.34
